So I've got a bunch of molecules here, and I need their MIC values.
- System: Mycobacterium avium
- testMethodNotes: Antimycobacterial activity against Mycobacterium avium 330/88 after 21 days
- Assay type: functional
- recordedConditions: 504 h

Task: Please look up its MIC: NNC(=O)c1ccncc1 [ISONIAZID]
Output: > 250 µM

Task: Consider the molecule shown here: `O=C(N/N=C/NCc1ccccn1)c1ccncc1` What is its recorded MIC?
Output: > 1000 µM

Task: Consider the molecule shown here: NC(=O)c1cnccn1 [PYRAZINAMIDE] What is its recorded MIC?
Output: > 128 µM

Task: Recorded MIC of `CN(C)/C=N/NC(=O)c1ccncc1` , please.
Output: > 1000 µM

Task: # input molecule: `O=C(N/N=C/NCc1ccccc1)c1ccncc1` ; wanted: its MIC
Output: > 1000 µM
